Biological target: PICK1, Q9NRD5
Sequence (Q9NRD5 17-115): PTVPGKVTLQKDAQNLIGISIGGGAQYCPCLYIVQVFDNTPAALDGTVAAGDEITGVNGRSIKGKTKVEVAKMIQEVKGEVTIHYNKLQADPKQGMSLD
Test: holdup assay
Parameters: key: below the threshold = too weak to quantify, mostly under pKd 3.1 to 4
Details: plain residues with an end cap or a label only (N-terminal biotin on a linker: ado-ado)
readout: pKd

Solved cases (4 shown):
THREVKFTSL [CD46, P15529] :: 4.08
PKSNSSKEYV [CLDN7, O95471] :: below the threshold
KIEDVEITLV [FCHSD2, O94868] :: below the threshold
ATKDKKITTV [EXOC4, Q96A65] :: below the threshold

// below: pKd requested for another binder
For the binder HDDYFYHDEL [RCN2, Q14257] , what pKd is on record?
below the threshold
